cellular uptake (% of applied activity) values for the binders below.
# experimental system: T1, C-X-C motif chemokine receptor 4 (CXCR4) on Ghost-CXCR4 cells (UniProt P61073 1-352)
# T1 construct: CXCR4 stably expressed in Ghost cells (NIH HIV Reagent Program); source: Ghost cells (human osteosarcoma cell line) stably transfected with CXCR4, also expressing CD4; on cells
# T1 sequence (P61073 whole entry): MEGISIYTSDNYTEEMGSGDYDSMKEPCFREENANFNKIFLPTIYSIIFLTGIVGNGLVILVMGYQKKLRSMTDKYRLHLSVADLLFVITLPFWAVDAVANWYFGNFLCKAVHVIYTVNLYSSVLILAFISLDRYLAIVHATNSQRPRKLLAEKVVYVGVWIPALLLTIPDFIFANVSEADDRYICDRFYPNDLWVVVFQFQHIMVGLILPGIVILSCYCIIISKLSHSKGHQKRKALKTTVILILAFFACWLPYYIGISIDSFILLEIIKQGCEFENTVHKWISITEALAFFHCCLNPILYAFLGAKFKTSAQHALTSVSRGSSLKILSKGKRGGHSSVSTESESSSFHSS
# test method notes: radioligand binding; cellular uptake (surface-bound and internalised) of 177Lu ligands (1 nM) in Ghost-CXCR4 cells, 37 °C, 15-60 min, DMEM with 5% BSA; nonspecific uptake with 100,000-fold excess of AMD3100 subtracted
# reported conditions: one partner purified
Square brackets hold non-standard residues; d marks the D form. Ends that are not written are not given here. * marks the point of attachment. DOTA = O=C(O)CN1CCN(CC(=O)O)CCN(CC(=O)*)CCN(CC(=O)O)CC1

Example binders with recorded cellular uptake (% of applied activity):
binder: [dL]LRWSRKLPCVSK(DOTA) (also: DOTA complexed with natLu, natLu and 177Lu complexes are written as one molecule; they differ only in the isotope; also called ^177Lu-6; Lu complex of ligand-6 (monomer); source: synthetic peptide, complexed with natLuCl3, monomer isolated by semipreparative RP-HPLC; ^177Lu form labelled with 177LuCl3 in the presence of DTT) [^natLu-6]
cellular uptake (% of applied activity): ~1 % of applied activity

binder: ILRWSRK(DOTA)-NH2 (also: natLu complexed by DOTA, natLu and 177Lu complexes are written as one molecule; they differ only in the isotope; also called ^177Lu-5; Lu complex of ligand-5; source: synthetic peptide, complexed with natLuCl3; ^177Lu form labelled with 177LuCl3) [^natLu-5]
cellular uptake (% of applied activity): ~1 % of applied activity

binder: ILRWSRKLPCVSK(DOTA) (also: natLu complexed by DOTA, natLu and 177Lu complexes are written as one molecule; they differ only in the isotope; also called ^177Lu-1; Lu complex of ligand-1 (monomer); source: synthetic peptide, complexed with natLuCl3, monomer isolated by semipreparative RP-HPLC; ^177Lu form labelled with 177LuCl3 in the presence of DTT) [^natLu-1]
cellular uptake (% of applied activity): ~1 % of applied activity

Continue with the next binder.
cellular uptake (% of applied activity) measured on ILRWSRKLPSVSK(DOTA) (also: natLu complexed by DOTA, natLu and 177Lu complexes are written as one molecule; they differ only in the isotope; also called ^177Lu-2; Lu complex of ligand-2; source: synthetic peptide, complexed with natLuCl3; ^177Lu form labelled with 177LuCl3) [^natLu-2] = ~1 % of applied activity
